Molecular target: endothelin converting enzyme (ECE) (Homo sapiens)
Construct: ECE was partially purified from EA.hy926 grown in 150 roller; endogenous in cells; host or cells: EA.hy926 (human umbilical vein endothelial cells fused with A549); detergent-solubilised membranes, RCA-I lectin eluate
Sequence (P42892 whole entry, the tested form may be a part): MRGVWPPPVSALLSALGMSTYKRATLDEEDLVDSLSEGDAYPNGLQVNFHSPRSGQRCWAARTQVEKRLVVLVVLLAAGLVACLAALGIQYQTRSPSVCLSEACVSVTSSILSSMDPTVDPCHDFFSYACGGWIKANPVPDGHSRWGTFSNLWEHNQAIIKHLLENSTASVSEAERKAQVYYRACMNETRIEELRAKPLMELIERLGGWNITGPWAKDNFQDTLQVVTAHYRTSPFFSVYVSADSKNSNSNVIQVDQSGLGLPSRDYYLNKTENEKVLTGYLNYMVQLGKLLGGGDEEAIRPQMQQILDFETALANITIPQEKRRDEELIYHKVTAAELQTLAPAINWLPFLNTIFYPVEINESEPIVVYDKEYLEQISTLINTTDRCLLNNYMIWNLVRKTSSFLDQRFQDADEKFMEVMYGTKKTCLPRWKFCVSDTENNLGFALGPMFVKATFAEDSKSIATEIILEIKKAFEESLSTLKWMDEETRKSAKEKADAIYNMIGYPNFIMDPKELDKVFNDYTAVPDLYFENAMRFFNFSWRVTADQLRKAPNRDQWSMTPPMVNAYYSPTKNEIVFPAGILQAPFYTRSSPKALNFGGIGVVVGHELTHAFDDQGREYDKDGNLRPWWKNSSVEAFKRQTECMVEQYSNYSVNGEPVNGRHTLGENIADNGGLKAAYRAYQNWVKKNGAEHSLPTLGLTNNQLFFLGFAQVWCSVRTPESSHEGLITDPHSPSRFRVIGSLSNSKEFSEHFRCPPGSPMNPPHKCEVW
Test: ECE assay (partially purified ECE from EA.hy926, ET-1 production by RIA)
Assay type: biochemical
Details: partially purified ECE from EA.hy926
Non-standard residues stand in square brackets, D forms with d. Residues, ends and D or L forms follow the SMILES beside them. *: point of attachment. Sta = CC(C)C[C@H](N)[C@@H](O)CC(=O)O; Isovaleryl = CC(C)CC(=O)*
outcome_measure: inhibition of the enzyme (in words)

CC(C)C[C@H](NC(=O)[C@@H](O)[C@H](N)Cc1ccccc1)C(=O)O	not inhibited
O=C(O)CN(CCOCCOCCN(CC(=O)O)CC(=O)O)CC(=O)O	inhibited
CC(C)CC(=O)N[C@H](C(=O)N[C@H](C(=O)N[C@@H](CC(C)C)[C@@H](O)CC(=O)N[C@@H](C)C(=O)N[C@@H](CC(C)C)[C@@H](O)CC(=O)O)C(C)C)C(C)C [pepstatin A] (Isovaleryl-VV[Sta]A[Sta]-OH)	not inhibited
CC(C)C[C@H](NC(=O)[C@H]1O[C@@H]1C(=O)O)C(=O)NCCCCN=C(N)N	not inhibited
C[C@H](CS)C(=O)N1CCC[C@H]1C(=O)O	not inhibited
c1cnc2c(c1)ccc1cccnc12	inhibited

*Q* Fill in the blank: the reported inhibition of the enzyme (in words) of O=C(O)CNC(=O)C(CS)Cc1ccccc1 (stereo not shown) is ____.
*A* not inhibited

*Q* Same thing, different compound: "C[C@H](N[C@@H](CCc1ccccc1)C(=O)O)C(=O)N1CCC[C@H]1C(=O)O"
*A* not inhibited

*Q* Same thing, different compound: O=S(=O)(F)Cc1ccccc1 [phenylmethlysulfonyl fluoride]
*A* not inhibited

*Q* Same thing, different compound: "CC(=O)N[C@@H](CC(C)C)C(=O)N[C@@H](CC(C)C)C(=O)N[C@H](C=O)CCCNC(=N)N"
*A* not inhibited
